- Tested on: insect form Leishmania major
- ASSAY_OVERVIEW: microbe, parasite or virus in culture
- Format: cell-based
- RUN_CONDITIONS: 144 h, read-out: IC50 L. major
I'd appreciate it if you could supply IC50 values for the items below.
Give your result in µM as a bare value.

IC50 lookup needed for NP(=O)(OCc1c(F)cc([N+](=O)[O-])cc1F)N(CCCl)CCCl (stereo not shown) , thanks.
1.29

IC50 lookup needed for NP(=O)(OCc1ccc([N+](=O)[O-])cc1Cl)N(CCCl)CCCl (stereo not shown) , thanks.
3.1

IC50 lookup needed for NP(=O)(OCc1ccc([N+](=O)[O-])cc1C(F)(F)F)N(CCCl)CCCl (stereo not shown) , thanks.
5.88

IC50 lookup needed for NP(=O)(OCc1ccc([N+](=O)[O-])cc1F)N(CCCl)CCCl (stereo not shown) , thanks.
4.72
